biological target: human IL-1β (human, UniProt P01584 117-269); assay: cell-based or functional assay
metric_name: MRC-5 IL-1β neutralization potency

binder: ABT2-108/ABT1-122 hu IgG1/K wt (bispecific antibody, V domains shown) VH: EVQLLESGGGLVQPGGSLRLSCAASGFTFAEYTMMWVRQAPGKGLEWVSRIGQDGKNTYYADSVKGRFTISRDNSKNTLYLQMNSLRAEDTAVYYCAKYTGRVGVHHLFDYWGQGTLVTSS VL: DIQMTQSPSSLSASVGDRVTITCRASQPIWTELNWYQQKPGKAPKLLIYGSSSLQSGVPRFSGSGSGTDFTLTISSLQPEDFATYYCQQFAYFPATFGQGTKVEIKR
observed_value: ~15 nM

Enquiry: Any idea what its MRC-5 IL-1β neutralization potency is? The binder is ABT2-108-620x/ABT1-122 huIgG1/K wt (bispecific antibody, V domains shown) VH: EVQLLESGGGLVQPGGSLRLSCAASGFTFAEESWMWVRQAPGKGLEWVSRIGQDGKNTYYREDVKGRFTISRDNSKNTLYLQMNSLRAEDTAVYYCAKYTGRIMGHHLFDYWGQGTLVTVSS VL: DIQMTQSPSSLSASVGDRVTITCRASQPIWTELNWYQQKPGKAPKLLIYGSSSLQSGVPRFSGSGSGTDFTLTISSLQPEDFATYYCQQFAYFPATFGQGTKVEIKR
Return: ~0.05 nM

Enquiry: Queued: ABT2-108/ABT1-122-511 hu IgG1/K wt (bispecific antibody, V domains shown) VH: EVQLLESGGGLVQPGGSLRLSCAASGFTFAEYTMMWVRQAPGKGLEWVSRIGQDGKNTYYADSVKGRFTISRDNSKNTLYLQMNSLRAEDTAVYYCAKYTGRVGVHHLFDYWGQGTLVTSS VL: DIQMTQSPSSLSASVGDRVTITCRASQPIWTELNWYQQKPGKAPKLLIYGSSSLQRGVPSRFSGSGSGTDFTLTISSLQPEDFATYYCKQFAYFPATFGQGTKVEIKR
Return: ~8 nM
